B1: Pistol ribozyme (parent)
chain: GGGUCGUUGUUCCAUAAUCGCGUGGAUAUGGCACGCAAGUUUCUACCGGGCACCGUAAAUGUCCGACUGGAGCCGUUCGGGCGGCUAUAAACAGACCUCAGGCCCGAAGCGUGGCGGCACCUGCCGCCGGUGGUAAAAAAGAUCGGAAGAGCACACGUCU

# Variants of: B1
# ASSAY INFO: aptazyme ON/OFF ratio, guanine; higher = stronger switching; co-transcriptional cleavage with and without guanine
READOUT TYPE: aptazyme ON/OFF ratio
Reply: number alone, nothing else.

| SEQUENCE CHANGE | aptazyme ON/OFF ratio |
| --- | --- |
| U8A U10G C12A C13G | 1.09 |
| U8G G9C U10C U11A C12U C13U | 1.04 |
| U7G G9C U10A | 3.1 |
| U8C G9A U10C U11G C12G C13A | 1.42 |
| U7G U8C G9C U10G U11A C12G C13U | 1.1 |
| G9C U11A C12A C13G | 1.12 |
| U7A U8G G9A U10C C13G | 1.1 |
| U10A U11G C13G | 1.19 |

Task item: Requested field: aptazyme ON/OFF ratio. Item: U7G U8A G9C U10A C13U
Reply: 1.02

Task item: Requested field: aptazyme ON/OFF ratio. Item: U7G G9A U10A U11G C12A C13U
Reply: 1.12

Task item: Requested field: aptazyme ON/OFF ratio. Item: U7C U8G U11A C12A C13G
Reply: 1.07

Task item: Requested field: aptazyme ON/OFF ratio. Item: U7C U8A G9C U10A U11G C12U
Reply: 1.21

Task item: Requested field: aptazyme ON/OFF ratio. Item: U8A G9U U10C C12G C13A
Reply: 1.15

Task item: Requested field: aptazyme ON/OFF ratio. Item: U7G U8A G9C U11A C12A C13U
Reply: 1.04

Task item: Requested field: aptazyme ON/OFF ratio. Item: G9A U10G U11A C13U
Reply: 1.05
